Value source: PubChem BioAssay (NCI)

PROTOCOL DESCRIPTION: NCI Yeast Anticancer Drug Screen. Data for the mlh1 rad18 strain (AID 175)
CONDITION SUMMARY: S. cerevisiae mlh1 rad18 strain growth inhibition; at 50.0 µM; active compounds read high
This is part of a sample that, as a whole, favours compounds with a hit. Of some 79,000 tested, about 15% had one in any assay.
VALUE TYPE: growth inhibition (%)
Report as a plain number; the unit % is understood.

| COMPOUND | VALUE TYPE | RECORDED MEASUREMENT |
| --- | --- | --- |
| Cc1ncc(CO)c(/C=N\NC(N)=S)c1O | growth inhibition | -7.25 |
| c1ccc(C2SCCN2c2ccccc2)cc1 (stereo unspecified) | growth inhibition | -14.4 |
| CN(C)CCCSc1nc2ccccc2[nH]1 | growth inhibition | -6.6 |
| O=C(OCC1OC(n2ccc(=O)[nH]c2=O)C(F)C1OC(=O)c1ccccc1)c1ccccc1 (stereo unspecified) | growth inhibition | 2.3 |

Entry O=C(O)C(c1cccs1)C1(O)CCCCC1 (stereo unspecified) has what growth inhibition?
-5.3

Return reported growth inhibition; argument: "CCc1nnc(-c2nsc3ccccc23)s1"
23.3

Tell me the measured growth inhibition of "CCCC(CCC)(C(=O)OCC)C(=O)OCC" , please.
0.65

Param item = Cc1ccc(S(=O)(=O)N/N=C2/C(=O)NC(=O)C(=O)C2c2nc3ccccc3s2)cc1 (stereo unspecified) ; retrieve measured growth inhibition.
12.4

Which growth inhibition value belongs to "CN=C(NC#N)NCCSCc1nc[nH]c1C" ?
-29.2

Need growth inhibition, item NC(CC(=O)OCc1ccccc1)C(=O)OCc1ccccc1 (stereo unspecified)
4.15

Quick one: growth inhibition for CC1CS(=O)(=O)O1 (stereo unspecified) ?
6.8

Reported growth inhibition for "Cc1cc([N+](=O)[O-])cnc1Cl" : what is it?
-16.8
